# assay.procedure: Displacement of [125I]angiotensin 2 from AT1 receptor in rat liver membrane after 2 hrs by gamma counting
# Format: cell membranes
observation.type: Ki

{"input.smiles": "CCCCOC(=O)NS(=O)(=O)c1sc(CC(C)C)cc1-c1ccc(CN2CCCC2=O)cc1", "observation.type": "Ki", "observed.value": "> 10 µM"}
{"input.smiles": "CCCCOC(=O)NS(=O)(=O)c1sc(CC(C)C)cc1-c1ccc(Cn2cnccc2=O)cc1", "observation.type": "Ki", "observed.value": "> 10 µM"}
{"input.smiles": "CCCCOC(=O)NS(=O)(=O)c1sc(CC(C)C)cc1-c1ccc(CN2C(=O)CN(C)C2=O)cc1", "observation.type": "Ki", "observed.value": "> 10 µM"}
{"input.smiles": "CCCCOC(=O)NS(=O)(=O)c1sc(CC(C)C)cc1-c1ccc(Cn2ccc(C(F)(F)F)n2)cc1", "observation.type": "Ki", "observed.value": "> 10 µM"}
{"input.smiles": "CCCCOC(=O)NS(=O)(=O)c1sc(CC(C)C)cc1-c1ccc(Cc2nccs2)cc1", "observation.type": "Ki", "observed.value": "> 10 µM"}
{"input.smiles": "CCCCOC(=O)NS(=O)(=O)c1sc(CC(C)C)cc1-c1ccc(C(=O)c2nccn2C)cc1", "observation.type": "Ki", "observed.value": "> 10 µM"}
{"input.smiles": "CCCCOC(=O)NS(=O)(=O)c1sc(CC(C)C)cc1-c1ccc(C(=O)c2ccnn2C)cc1", "observation.type": "Ki", "observed.value": "> 10 µM"}
{"input.smiles": "CCCCOC(=O)NS(=O)(=O)c1sc(CC(C)C)cc1-c1ccc(C(=O)c2cccs2)cc1", "observation.type": "Ki", "observed.value": "> 10 µM"}
{"input.smiles": "CCCCOC(=O)NS(=O)(=O)c1sc(CC(C)C)cc1-c1ccc(Cn2cnc(C(F)(F)F)c2)cc1", "observation.type": "Ki", "observed.value": "> 10 µM"}
{"input.smiles": "CCCCOC(=O)NS(=O)(=O)c1sc(CC(C)C)cc1-c1ccc(CN2C(=O)N(C)C(C)(C)C2=O)cc1", "observation.type": "Ki", "observed.value": "> 10 µM"}
{"input.smiles": "CCCCOC(=O)NS(=O)(=O)c1sc(CC(C)C)cc1-c1ccc(CN2CCOCC2)cc1", "observation.type": "Ki", "observed.value": "> 10 µM"}
{"input.smiles": "CCCCOC(=O)NS(=O)(=O)c1sc(CC(C)C)cc1-c1ccc(C(=O)c2ncco2)cc1", "observation.type": "Ki", "observed.value": "> 10 µM"}
{"input.smiles": "CCCCOC(=O)NS(=O)(=O)c1sc(CC(C)C)cc1-c1ccc(CN2CCC(=O)CC2)cc1", "observation.type": "Ki", "observed.value": "> 10 µM"}
{"input.smiles": "CCCCc1nc(Cl)c(CO)n1Cc1ccc(-c2ccccc2-c2nnn[nH]2)cc1", "observation.type": "Ki", "observed.value": "0.0121 µM"}
{"input.smiles": "CCCCOC(=O)NS(=O)(=O)c1sc(CC(C)C)cc1-c1ccc(Cn2ncnn2)cc1", "observation.type": "Ki", "observed.value": "> 10 µM"}
{"input.smiles": "CCCCOC(=O)NS(=O)(=O)c1sc(CC(C)C)cc1-c1ccc(Cn2cnnn2)cc1", "observation.type": "Ki", "observed.value": "> 10 µM"}
{"input.smiles": "CCCCOC(=O)NS(=O)(=O)c1sc(CC(C)C)cc1-c1ccc(Cn2cnc(C)c2)cc1", "observation.type": "Ki", "observed.value": "> 10 µM"}
{"input.smiles": "Cc1cc(Cn2cnc3c2C[C@@H](C(=O)O)N(C(=O)C(c2ccccc2)c2ccccc2)C3)ccc1N(C)C", "observation.type": "Ki", "observed.value": "> 10 µM"}
